These entries and their values trace back to the Human Domainome abundance scans (Beltran et al. 2025).

B1: Homeobox protein cut-like 1, residues 941 to 1008; numbered along this chain, P39880 (parent)
chain: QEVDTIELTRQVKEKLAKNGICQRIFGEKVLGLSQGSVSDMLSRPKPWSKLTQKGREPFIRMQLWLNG

- Variants of: B1
- TEST_DETAILS: abundance fitness (aPCA) (normalised: wild type 0, dead -1); higher = more abundant; growth selection in yeast, the domain comes from the species named
- CONDITION_PARAMETERS: Homo sapiens

[
  {
    "SEQUENCE_ENTRY": "QEVDTIELTRQVKEKLAKNGICQKIFGEKVLGLSQGSVSDMLSRPKPWSKLTQKGREPFIRMQLWLNG",
    "abundance fitness": -0.07
  },
  {
    "SEQUENCE_ENTRY": "QEVDTIELTRQVNEKLAKNGICQRIFGEKVLGLSQGSVSDMLSRPKPWSKLTQKGREPFIRMQLWLNG",
    "abundance fitness": -0.132
  },
  {
    "SEQUENCE_ENTRY": "QEVDTKELTRQVKEKLAKNGICQRIFGEKVLGLSQGSVSDMLSRPKPWSKLTQKGREPFIRMQLWLNG",
    "abundance fitness": 0.089
  },
  {
    "SEQUENCE_ENTRY": "QEVDTIELTRQWKEKLAKNGICQRIFGEKVLGLSQGSVSDMLSRPKPWSKLTQKGREPFIRMQLWLNG",
    "abundance fitness": -0.226
  },
  {
    "SEQUENCE_ENTRY": "QEVDTIELTRQVKEKLAKNGICQRPFGEKVLGLSQGSVSDMLSRPKPWSKLTQKGREPFIRMQLWLNG",
    "abundance fitness": -0.578
  },
  {
    "SEQUENCE_ENTRY": "QEVDTIELTRQVKEKLAKNGICQRIFGEKVLGLSQGSVSDMLNRPKPWSKLTQKGREPFIRMQLWLNG",
    "abundance fitness": 0.066
  },
  {
    "SEQUENCE_ENTRY": "QEVDTIELTRQVKEKLAKNGICQRIFFEKVLGLSQGSVSDMLSRPKPWSKLTQKGREPFIRMQLWLNG",
    "abundance fitness": -0.086
  },
  {
    "SEQUENCE_ENTRY": "QEVDTIELTRQVKEKLAKNGICQRIFGEKVLGLSQGSPSDMLSRPKPWSKLTQKGREPFIRMQLWLNG",
    "abundance fitness": -0.364
  },
  {
    "SEQUENCE_ENTRY": "QEVDTIELTRQVKEKLAKNGICQRIFGEKVLGLSQGSVSDMLTRPKPWSKLTQKGREPFIRMQLWLNG",
    "abundance fitness": -0.01
  },
  {
    "SEQUENCE_ENTRY": "QEVDTIELTRQVKEKLAKNGICQRIFGEKVLGLSDGSVSDMLSRPKPWSKLTQKGREPFIRMQLWLNG",
    "abundance fitness": 0.066
  },
  {
    "SEQUENCE_ENTRY": "QEVDTIELTRQVKEKLAKNGICQRIFGEKVLGLSQGSVSDMLSRPKEWSKLTQKGREPFIRMQLWLNG",
    "abundance fitness": -0.067
  },
  {
    "SEQUENCE_ENTRY": "NEVDTIELTRQVKEKLAKNGICQRIFGEKVLGLSQGSVSDMLSRPKPWSKLTQKGREPFIRMQLWLNG",
    "abundance fitness": -0.412
  },
  {
    "SEQUENCE_ENTRY": "QEVDTIELTRQVKEKLAKNGICQRIFGEKVLGLSQDSVSDMLSRPKPWSKLTQKGREPFIRMQLWLNG",
    "abundance fitness": 0.028
  },
  {
    "SEQUENCE_ENTRY": "QEVDTIELTRQVKEKLAKNGICQRIFGEKVLGLSQGSVSDALSRPKPWSKLTQKGREPFIRMQLWLNG",
    "abundance fitness": 0.023
  },
  {
    "SEQUENCE_ENTRY": "QEVDTIELTRQVKQKLAKNGICQRIFGEKVLGLSQGSVSDMLSRPKPWSKLTQKGREPFIRMQLWLNG",
    "abundance fitness": -0.14
  },
  {
    "SEQUENCE_ENTRY": "QEVDTIELTRQVLEKLAKNGICQRIFGEKVLGLSQGSVSDMLSRPKPWSKLTQKGREPFIRMQLWLNG",
    "abundance fitness": -0.326
  },
  {
    "SEQUENCE_ENTRY": "QEVDTIELTRQVKEKLAKNGICQRIFGEKVLGLSQGSVSDMLSRPKPWSMLTQKGREPFIRMQLWLNG",
    "abundance fitness": -0.012
  },
  {
    "SEQUENCE_ENTRY": "QEVDTIELTRQVKEKLAKNGICQRIFGEKVLGLSQGSVSDMLSRPKGWSKLTQKGREPFIRMQLWLNG",
    "abundance fitness": -0.123
  },
  {
    "SEQUENCE_ENTRY": "QEVDTIELTRQVKEKLAKNGICRRIFGEKVLGLSQGSVSDMLSRPKPWSKLTQKGREPFIRMQLWLNG",
    "abundance fitness": -0.019
  },
  {
    "SEQUENCE_ENTRY": "QEVDDIELTRQVKEKLAKNGICQRIFGEKVLGLSQGSVSDMLSRPKPWSKLTQKGREPFIRMQLWLNG",
    "abundance fitness": -0.412
  },
  {
    "SEQUENCE_ENTRY": "QEVDTIELTRQVKEKLAKNGICQRIFGEKVLGLSQGSVSDMLSRPKPWSKLCQKGREPFIRMQLWLNG",
    "abundance fitness": -0.111
  },
  {
    "SEQUENCE_ENTRY": "QEVDTIELTRQVKEKLAKNGICQRIFGEKVLGLSQGSVSYMLSRPKPWSKLTQKGREPFIRMQLWLNG",
    "abundance fitness": -0.212
  }
]
